Entries and their % Inhibition
- Tested on: P. falciparum stage V gametocytes
- Parameters: BacTiter-Glo ATP luminescence viability of purified stage V gametocytes in 384-well plates, per cent inhibition versus DMSO
- ASSAY SETUP: 48 h, 5 µM; inhibitor
Among all 13,000 compounds or so, about 3,200 (25%) showed an effect of 50% or more. Some of the results follow.
All answers are understood in %, so give the number only.

Example entries and their recorded answers appear below.
State measured % Inhibition of the compound COc1ccc(NC(=O)[C@H](CC(C)C)Nc2cc(C)nc(Nc3ccccc3)n2)cc1 with P. falciparum stage V gametocytes.
-4.957

Answer with % Inhibition of COc1ccc(CN(C)CCCOc2ccc(NC(=O)c3cccc4c(=O)c5cccc(F)c5[nH]c34)cc2)cc1OC measured for P. falciparum stage V gametocytes.
60.98

// fetch % Inhibition for O=C(NCc1ccccc1)Nc1ccc(-c2cccc(-c3nc4ccc(C(F)(F)F)cc4[nH]3)c2)cc1 ; system: P. falciparum stage V gametocytes
-18.34

Next compound, please.
Under P. falciparum stage V gametocytes, report % Inhibition for COc1ccc(CN(C)CCCOc2ccc(NC(=O)c3cccc4c(=O)c5cccc(C)c5[nH]c34)cc2)cc1OC
23.76
